Assay: protein stability index of a GFP-peptide fusion (GPS, HEK-293T) (PSI 1-6); higher = more stable;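 also: 24-mer peptide tiles fused after GFP, lentivirally expressed, FACS-sorted into six equal bins by GFP/DsRed ratio, decoded by Illumina sequencing, PSI is the read-weighted mean bin number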
Details: treatment: DMSO; c terminus: a fixed tail appended
Measured protein stability index determines class: low band: < 3; middle band: ≥ 3 and < 4; high band: ≥ 4

Please review the following examples before continuing.
EVTASQEARGLRLSDLEDLEEEEE [IRX6]; high band
NFDSIYICPSTFACAQLATGAACR [HDAC6]; low band
RILQEKLDQPVSAPPSPRDISMEI [CCDC6]; middle band
VDRNTRPGPQDPEESASRQRFGEA [ELOA2]; high band
MLCSQPGLANSSRVRGRVGTIRPV [C22orf15]; middle band
SRGGPPPPPPPPHNSGPPPPPARG [WASL]; high band
VEATVKPELTAALRDIRAQYESIA [PRPH]; middle band
PSLYSSYHQGCLVNPTGNLPMWSN [NANOGP8]; low band

Form field 'band' for WDQVSRLHEVLTEVVPIHGRGNFP [TENT5C]
low band

Just checking, what class would you give KNWVKELRQHGPPNIVVAIAGNKC [RAB22A] here?
low band

Record DPDVGVNSLQSYQLSPNKHFSLRV [PCDHGA10] — which class?
low band

Kindly state the category for this sequence: SVSSCDQEHQSALEEAKQPKNDNV [SMOC2]
high band

Class (by measured protein stability index) for CTDSVVKYELMRPSNKAPLLVLCE [EHMT1]
low band

Assign a category based on measured protein stability index for RQKIWNNMPKDHPVSCCLGLLLES [DYNC2LI1] and give only the class name.
low band

Please let me know in which category the item QQYQSQAKQLFRKLNEQSPTRCTL [SEC22B] belongs.
middle band

Which class does KMNFIKTYPAHQNRVSAIIFSLAT [WDFY1] fall in?
low band

Sort YYAKRNALRAAEVWMDDFKSHVYM [GALNT9] into one of the categories.
low band

Into which bin does this sequence go? MGVSSVIHPKNPHAPTIHFNYRYF [CPOX]
low band

Category of ESENASLREKLRLREAEIARIRDE [LRRC45] , please.
high band

Data origin, for the record: the supplement of paper PMC10567573
